Assay: Log D measurement
Type: physicochemical
Conditions: octanol/water; read-out: LogD
readout-type: logD
Number, no unit, nothing else.

Completed entries (count: 2):
CCCNC(=O)c1ccc(-n2cnc3ccccc32)s1
3.3
CCCNC(=O)c1ccc(N2CCN(C)CC2)s1
1.5

Enquiry: Need logD, item CCCNC(=O)c1ccc(-n2c(C)nc3ccccc32)s1
Return: 3.4

Enquiry: # input compound: CCCNC(=O)c1ccc(N2CCCCC2)s1 ; wanted: its logD
Return: 3.2

Enquiry: If you can, please state the reported logD value of CCCNC(=O)c1ccc(-n2cccn2)s1 .
Return: 2.2

---

Tested on: P. falciparum 3D7
Assay: Inhibition of in vitro P. falciparum culture, [3H]-hypoxanthine uptake, 3D7
Assay type: cell-based
Conditions: Plasmodium falciparum, 3D7, Erythrocyte; [3H]-hypoxanthine uptake by parasite infected erythrocytes; read-out: 3D7 IC50
Fulfilled if IC50 is below 300 nM. Not fulfilled if not; exact matches included in Not fulfilled.

Record excerpt, results attached:
O=C(NC1CC1)c1ccc(N2CCSc3ccccc32)s1 [Compound 5]
Not fulfilled
CCCCCC1CCCc2c1nc1ccccc1c2O (centres unmarked) [Compound 3]
Not fulfilled
Fc1cc(I)ccc1Nc1ccnc2cc(Cl)ccc12 [Compound 4]
Not fulfilled

Enquiry: Answer whether the compound O=C1C(O)=C([C@H]2CC[C@H](c3ccc(Cl)cc3)CC2)C(=O)c2ccccc21 [Atovaquone, reference compound] has IC50 strictly less than 300 nM
Return: Fulfilled

---

Biological target: pfDHODH (Plasmodium falciparum (isolate 3D7))
Test: DHODH chromogen reduction (DCIP) assay, pfDHODH
Assay type: biochemical, P. falciparum
Details: Table 2b; read-out: pfDHODH IC50
readout-type: pIC50
pIC50 field: float, defined as -log10 of concentration (mol/L).

Examples from the recorded data:
CCNC(=O)c1ccc(-n2c(C)nc3ccccc32)s1
6.72
CCc1nc2cc(F)ccc2n1-c1ccc(C(=O)NC2CC2)s1
7.17
CC(C)NC(=O)c1ccc(-n2cnc3ccccc32)s1
6.16
Cc1nc2cc(C(F)(F)F)ccc2n1-c1ccc(C(=O)NC2CC2)s1
7.39
CCNC(=O)c1ccc(-n2c(C)nc3cc(F)ccc32)s1
6.79

Next molecule, please.
Enquiry: Notebook: pull reported pIC50 for pfDHODH (Plasmodium falciparum (isolate 3D7)), entry O=C(NC1CC1)c1ccc(-n2cnc3ccccc32)s1
Return: 7.25

---

# maps each entry to its pEC50
System: P. falciparum 3D7
Assay: Inhibition of in vitro P. falciparum culture, [3H]-hypoxanthine uptake, 3D7
Type: cell-based
Conditions: Plasmodium falciparum, 3D7, Table 2b; read-out: 3D7 EC50
Quick note: pEC50 values are minus log10 of concentrations in mol/L.

Enquiry: Notebook: pull reported pEC50 for P. falciparum 3D7, entry CCc1nc2cc(F)ccc2n1-c1ccc(C(=O)NC2CC2)s1 [Compound 66]
Return: 6.87

Enquiry: Lab note: need pEC50 for CCCC/C(=N\OC)c1ccc(-n2cnc3ccccc32)s1 [Compound 89] on P. falciparum 3D7, anyone have it?
Return: 5.28

Enquiry: Find the measured pEC50: item CCCNC(=O)c1ccc(-n2cnc3ccccc32)s1 [Compound 11] , target or system P. falciparum 3D7.
Return: 6.33

Enquiry: Can you look up pEC50 on P. falciparum 3D7 for CCCNC(=O)c1ccc(-n2c(C)nc3cc(F)ccc32)s1 [Compound 50] ?
Return: 6.59

Enquiry: Give P. falciparum 3D7 pEC50 for CCCNC(=O)c1ccc(-n2cnc3cc(Cl)ccc32)s1 [Compound 56]
Return: 6.69

Enquiry: Item: CCCNC(=O)c1ccc(-n2c(C)nc3cc(Cl)ccc32)s1 [Compound 51] Test system: P. falciparum 3D7 Read-out: pEC50 Value: ?
Return: 6.80

Enquiry: What measured pEC50 is associated with Cc1nc2cc(OC(C)C)ccc2n1-c1ccc(C(=O)NC2CC2)s1 [Compound 94] on P. falciparum 3D7?
Return: 7.29

Enquiry: # value lookup — system P. falciparum 3D7, readout pEC50, item CC(C)NC(=O)c1ccc(-n2cnc3ccccc32)s1 [Compound 36]
Return: 6.24

Enquiry: pEC50 of CCNC(=O)c1ccc(-n2c(C)nc3cc(F)ccc32)s1 [Compound 53] on P. falciparum 3D7?
Return: 7.18

---

Test: Hepatic clearance, human
Type: in vitro ADME
Description: Clearance of drug by the liver will depend on the rate of delivery of drug to the liver (the hepatic blood flow) and on the efficiency of removal of drug which is presented to it (the extraction ratio). The hepatic clearance of compounds can be determined by standard methods known in the art. […]
readout-type: microsomal CLint (µL/min/mg)
Give your result in µL/min/mg as a bare value.

As a guide, the following entries are already answered.
CCCNC(=O)c1ccc(-n2cnc3ccccc32)s1 [Compound 11]
49
CCCNC(=O)c1ccc(-n2c(C)nc3ccccc32)s1 [Compound 12]
33
CCCNC(=O)c1ccc(-n2cccn2)s1 [Compound 9]
59

// switching to the query compound
Enquiry: Report microsomal CLint for CCCNC(=O)c1ccc(N2CCN(C)CC2)s1 [Compound 10] please.
Return: 8

---

Target: pfDHODH (Plasmodium falciparum (isolate 3D7), UniProt Q08210)
Sequence (Q08210 159-565 limits assumed): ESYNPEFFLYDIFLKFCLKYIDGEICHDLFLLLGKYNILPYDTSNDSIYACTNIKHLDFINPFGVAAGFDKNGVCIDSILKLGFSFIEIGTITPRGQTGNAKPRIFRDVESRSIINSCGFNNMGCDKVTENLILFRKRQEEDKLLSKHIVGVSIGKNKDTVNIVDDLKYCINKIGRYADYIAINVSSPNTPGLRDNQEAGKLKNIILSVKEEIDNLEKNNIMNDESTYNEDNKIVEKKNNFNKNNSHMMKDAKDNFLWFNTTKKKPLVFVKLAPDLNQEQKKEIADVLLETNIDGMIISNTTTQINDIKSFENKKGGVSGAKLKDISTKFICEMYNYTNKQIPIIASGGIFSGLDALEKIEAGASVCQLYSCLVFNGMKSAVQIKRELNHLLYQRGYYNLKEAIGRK
Assay: DHODH chromogen reduction (DCIP) assay, pfDHODH
Format: biochemical, P. falciparum
Conditions: Table 2b; read-out: pfDHODH IC50
In this section, each of the molecules is paired with its reported log10(IC50).
A value of 2 here means IC50 of 100 in nM, since values are log10.

# count of solved cases: 8
CCCNC(=O)c1ccc(-n2c(C)cc3ccccc32)s1 [Compound 1]
1.81
Cc1nc2cc(OC(F)(F)F)ccc2n1-c1ccc(C(=O)NC2CC2)s1 [Compound 57]
1.81
O=C(NC1CC1)c1ccc(-n2cnc3cc(F)ccc32)s1 [Compound 70]
1.76
CCCNC(=O)c1ccc(-n2cnc3ccccc32)s1 [Compound 11]
2.85
CCNC(=O)c1ccc(-n2c(C)nc3cc(Cl)ccc32)s1 [Compound 52]
1.97
Cc1nc2ccccc2n1-c1cc(C(=O)NC2CC2)cs1 [Compound 78]
3.23
CCCNC(=O)c1ccc(N2CCCCC2)s1 [Compound 8]
5.36
O=C(NC1CCC1)c1ccc(-n2cnc3ccccc32)s1 [Compound 38]
2.62

Enquiry: What value of log10(IC50) has been recorded for this entry: CNC(=O)c1ccc(-n2cnc3ccccc32)s1 [Compound 24]
Return: 3.03

Enquiry: Given the molecule CCCNC(=O)c1ccc(N2CCSc3ccccc32)s1 [Compound 18] , what is its reported log10(IC50)?
Return: 3.96

Enquiry: Need log10(IC50), item CCNC(=O)c1ccc(-n2c(C)nc3cc(C)ccc32)s1 [Compound 62]
Return: 2.05

---

Test system: P. falciparum 3D7
Experiment: Inhibition of in vitro P. falciparum culture, [3H]-hypoxanthine uptake, 3D7
Assay type: cell-based
Conditions: Plasmodium falciparum, 3D7, Table 2b; read-out: 3D7 EC50
Form field: pEC50 (one value per entry).
Value format note: pEC50 is -log10 of concentration (mol/L); just state the number.

Would you please look over these solved cases?
O=C(NC1CC1)c1ccc(-n2c(O)nc3ccccc32)s1 [Compound 45]
5.30
COc1ccc2c(c1)nc(C)n2-c1ccc(C(=O)NC2CC2)s1 [Compound 39]
6.74
CCCC/C(=N/OC)c1ccc(-n2cnc3ccccc32)s1 [Compound 88]
5.27
Cc1ccc2c(c1)nc(C)n2-c1ccc(C(=O)NC2CC2)s1 [Compound 44]
7.47

Enquiry: Please look up its pEC50: CCCC/C(=N\O)c1ccc(-n2cnc3ccccc32)s1 [Compound 86]
Return: 5.00

---

Reported IC50 by item:
Target: pfDHODH (Plasmodium falciparum (isolate 3D7))
Assay: DHODH chromogen reduction (DCIP) assay, pfDHODH
Assay type: biochemical, P. falciparum
Details: Table 2b; read-out: pfDHODH IC50
Write the answer as a number in µM, unit excluded.

Completed entries (count: 5):
CCNC(=O)c1ccc(-n2cnc3cc(F)ccc32)s1
0.105
CCNC(=O)c1ccc(-n2cnc3cc(C)ccc32)s1
0.075
Cc1nc2cnccc2n1-c1ccc(C(=O)NC2CC2)s1
3.08
Cc1nc2ccccc2n1-c1ccc(C(=O)NC2CC2)s1 [Compound 32]
0.074
Cc1nc2cccnc2n1-c1ccc(C(=O)NC2CC2)s1
1.12

Enquiry: Request the reported IC50 associated with O=C(NCCO)c1ccc(-n2cnc3ccccc32)s1
Return: 14

Enquiry: Recorded IC50 of CCCc1nc2ccccc2n1-c1ccc(C(=O)NC2CC2)s1 , please.
Return: 0.18

Enquiry: Recorded IC50 for Cc1nc(-c2ccc(Cl)cc2)cn1-c1ccc(C(=O)NC2CC2)s1 , please?
Return: 0.252

---

Assay: Permeability
Format: in vitro ADME
Conditions: Caco-2
Each entry below carries its recorded Papp.
Lab book: enter the figure in ×10⁻⁶ cm/s, no units written.

CCCNC(=O)c1ccc(N2CCCCC2)s1
43

Enquiry: Can you share its Papp? I mean this compound: CCCNC(=O)c1ccc(N2CCN(C)CC2)s1
Return: 11

Enquiry: For the compound CCCNC(=O)c1ccc(-n2cnc3ccccc32)s1 , what Papp is on record?
Return: 32

Enquiry: Return reported Papp; argument: CCCNC(=O)c1ccc(-n2c(C)nc3ccccc32)s1
Return: 65

Enquiry: Need Papp, item CCCNC(=O)c1ccc(-n2cccn2)s1
Return: 22
